test: Selectivity index, ratio of EC50 for rat L6 cells to EC50 for Plasmodium falciparum K1; assay type: toxicity, cell-based; settings: read-out: Ratio EC50
# reported selectivity ratio; entries follow

Example entries begin here.
O=c1ccn(CCCCCCOC(c2ccccc2)(c2ccccc2)c2ccccc2)c(=O)[nH]1
19
O=c1ccn(CCCCNC(c2ccccc2)(c2ccccc2)c2ccccc2)c(=O)[nH]1
9

Specify reported selectivity ratio for the compound shown: O=c1ccn(CCCOC(c2ccccc2)(c2ccccc2)c2ccccc2)c(=O)[nH]1 5

Specify reported selectivity ratio for the compound shown: O=c1ccn(CCCCCCNC(c2ccccc2)(c2ccccc2)c2ccccc2)c(=O)[nH]1 36

Specify reported selectivity ratio for the compound shown: O=c1ccn([C@H]2C[C@H](O)[C@@H](CNC(c3ccccc3)c3ccccc3)O2)c(=O)[nH]1 > 20

Specify reported selectivity ratio for the compound shown: O=c1ccn(CCCCOC(c2ccccc2)c2ccccc2)c(=O)[nH]1 7

Specify reported selectivity ratio for the compound shown: O=c1ccn(CCCCNC(c2ccccc2)c2ccccc2)c(=O)[nH]1 38

Specify reported selectivity ratio for the compound shown: O=c1ccn(CCCNC(c2ccccc2)c2ccccc2)c(=O)[nH]1 49
